Test system: NCI-H522 lung
Experiment: NCI tumour cell line growth inhibition, 48 h
Catalogue of compounds with associated TGI
measurement_name: TGI

{"compound": "Oc1ccc(-c2nn3c(CCCCCCCCc4nnc5sc(-c6ccc(O)cc6)nn45)nnc3s2)cc1", "measurement_name": "TGI", "value_observed": "> 100 µM"}
{"compound": "CC(C)(/C=N\\O)NO", "measurement_name": "TGI", "value_observed": "> 10 µM"}
{"compound": "CC(=O)OCC1OC(n2c(-c3ccc(C)cc3)cc(-c3ccco3)c(C#N)c2=S)C(OC(C)=O)C(OC(C)=O)C1OC(C)=O (stereo not given)", "measurement_name": "TGI", "value_observed": "> 100 µM"}
{"compound": "O=P(O)(O)C(NCC(O)CN1CCOCC1)P(=O)(O)O (stereo not given)", "measurement_name": "TGI", "value_observed": "> 100 µM"}
{"compound": "Cn1c(=O)c2nc(N3CCOCC3)cnc2n(C)c1=O", "measurement_name": "TGI", "value_observed": "> 100 µM"}

====

System: MDA-MB-435
Experiment: NCI tumour cell line growth inhibition, 48 h
Catalogue of compounds with associated TGI

{"compound": "O=S1CCN(Cc2ccc(-c3ccc4ncnc(Nc5ccc(OCc6cccc(F)c6)c(Cl)c5)c4c3)o2)CC1", "TGI": "> 25 µM"}
{"compound": "Cn1cc(-c2nc3c(F)cc4[nH]ncc4c3c3c2CCCC3)c(C(F)(F)F)n1", "TGI": "> 100 µM"}
{"compound": "Cc1ccc(/C=N/Nc2ccccn2)s1", "TGI": "> 100 µM"}
{"compound": "CC(=O)OCC1OC(n2c(-c3ccc(C)cc3)cc(-c3ccco3)c(C#N)c2=S)C(OC(C)=O)C(OC(C)=O)C1OC(C)=O (stereo not drawn)", "TGI": "> 100 µM"}
{"compound": "CC1(C)SC2C(NC(=O)C(C(=O)O)c3ccccc3)C(=O)N2C1C(=O)O (stereo not drawn)", "TGI": "> 100 µM"}
{"compound": "O=CNCCCN1CCN(CCCNC=O)CC1", "TGI": "> 100 µM"}
{"compound": "OC1CCN(c2c3ccccc3nc3ccccc23)CC1", "TGI": "54.9 µM"}
{"compound": "C/C(=N\\O)c1ccc2cc(Br)c3ccccc3c2c1", "TGI": "69.9 µM"}

====

System: HCC-2998 colon
Test: NCI tumour cell line growth inhibition, 48 h
measurement_name: TGI

{"compound": "Cc1ccc(C2(c3ccc(C)cc3)SC(=C(C#N)C#N)c3ccccc32)cc1", "value_observed": "> 100 µM"}
{"compound": "COc1ccc2c(c1)C(=O)c1c-2n(CCCCl)c(=O)c2cc(OC)c(OC)cc12", "value_observed": "> 95.9 µM"}
{"compound": "COc1cc2cccc(N=Cc3ccccc3Cl)c2cc1OC", "value_observed": "> 100 µM"}
{"compound": "Cc1ccccc1-n1c(=O)sc2c(=O)n(-c3ccccc3)c(=S)[nH]c21", "value_observed": "> 100 µM"}
{"compound": "COCC(=O)Oc1cc(-c2ccc(C)cc2C)c(OC(=O)COC)c(-c2ccc(C)cc2C)c1", "value_observed": "28.9 µM"}
{"compound": "COc1ccc(Nc2nccc(Nc3ccc4[nH]ncc4c3)n2)cc1", "value_observed": "8.05 µM"}
{"compound": "O=S1CCN(Cc2ccc(-c3ccc4ncnc(Nc5ccc(OCc6cccc(F)c6)c(Cl)c5)c4c3)o2)CC1", "value_observed": "14.7 µM"}
{"compound": "C=Cc1ccccc1 (tested in a mixture with another compound)", "value_observed": "> 75 µg/mL"}
{"compound": "O=C(O)CNC(=O)C(CSC(=O)OCC1c2ccccc2-c2ccccc21)NC(=O)CCC(NC(=O)OCC1c2ccccc2-c2ccccc21)C(=O)O (stereo not given)", "value_observed": "> 100 µM"}
{"compound": "FC(F)(F)c1ccc(-c2cnc(Cl)nc2NC2CCCCCC2)cc1", "value_observed": "> 100 µM"}

====

System: MDA-MB-231 breast
Assay: NCI tumour cell line growth inhibition, 48 h

{"compound": "COc1ccccc1N1C(=O)/C(=C\\c2cc(OC)c(OC)c(OC)c2)SC1c1ccccc1 (stereo not drawn)", "TGI": "> 100 µM"}
{"compound": "COc1cc(/C=N\\O)cc(/C=N/O)c1O", "TGI": "> 100 µM"}
{"compound": "O=C(N/S(=N/S(=O)(=O)c1ccc(Br)cc1)C(Cl)(Cl)Cl)c1ccccc1 (stereo not drawn)", "TGI": "> 100 µM"}
{"compound": "NC(N)=NS(=O)(=O)c1ccc(Nc2c3ccccc3nc3c(C(=O)NNCCO)cccc23)cc1", "TGI": "0.731 µM"}
{"compound": "O=C(/C=C/c1ccsc1)c1ccc(Cl)cc1", "TGI": "> 100 µM"}
{"compound": "CCCc1c(Cl)nc(Cl)nc1Cl", "TGI": "7.99 µM"}
{"compound": "COC(=O)CCCC(=O)NC1=C(Nc2ccc(OC)cc2)C(=O)c2ccccc2C1=O", "TGI": "82.9 µM"}
{"compound": "CC(C)(/C=N\\O)NO", "TGI": "> 10 µM"}

====

Catalogue of compounds with associated TGI
System: OVCAR-4 ovarian
Assay: NCI tumour cell line growth inhibition, 48 h

{"compound": "CCOC(=O)NC1C2CC(=O)C(O2)C1OCc1ccccc1 (configuration not stated)", "TGI": "> 100 µM"}
{"compound": "OCc1nnn2c1CCC2", "TGI": "> 100 µM"}
{"compound": "O=C(O)CC(O)(c1ccccc1C(=O)O)c1cccc2ccccc12 (configuration not stated)", "TGI": "> 100 µM"}
{"compound": "COc1ccc(CCn2c3c(c4c(O)cccc42)C(=O)c2ccccc2-3)cc1OC", "TGI": "> 100 µM"}
{"compound": "COCC(=O)Oc1cc(-c2ccc(C)cc2C)c(OC(=O)COC)c(-c2ccc(C)cc2C)c1", "TGI": "23.6 µM"}
{"compound": "Nc1cc2c([nH]c[n+]2CC#CCCl)c(SCC#CCCl)n1", "TGI": "7.17 µM"}
{"compound": "CC(C)C1=C(O)C2=C(C(=O)C1=O)C1(C)CCCC(C)(C)C1CC2O (configuration not stated)", "TGI": "82.6 µM"}
{"compound": "CC(C)OC(=O)C1=C2c3ncccc3C(=O)N2[C@@H](Cl)[C@@H](Cl)[C@@H]1Cl", "TGI": "> 100 µM"}
{"compound": "COc1cc(C(=O)/C=C/c2ccc(OCCCCCC[P+](c3ccccc3)(c3ccccc3)c3ccccc3)cc2)cc(OC)c1OC", "TGI": "1.48 µM"}
{"compound": "CCN(Cc1ccncc1)c1ccc(CO)c(Cl)c1", "TGI": "6.27 µM"}
{"compound": "COc1ccc(-c2cc(-c3ccccc3)nc(/N=C\\c3ccccc3)n2)c(O)c1", "TGI": "> 100 µM"}
{"compound": "Cc1cc(-c2ncc(-c3cccnc3)cc2/C=C/c2ccccc2)cnc1-c1cccnc1", "TGI": "> 100 µM"}
{"compound": "Cc1cc(C)c(-c2cc(O)c(-c3c(C)cc(C)cc3C)cc2O)c(C)c1", "TGI": "> 100 µM"}
{"compound": "COc1ccc(NC(=S)N/N=C/c2cccc(C)n2)cc1", "TGI": "> 100 µM"}
{"compound": "CCCC(c1nnnn1C1CCCCC1)N1CCN(C(=O)c2ccco2)CC1 (configuration not stated)", "TGI": "> 100 µM"}
{"compound": "COc1ccc2nc(NNC(=O)c3cnccn3)c3cccn3c2c1", "TGI": "5.07 µM"}
{"compound": "CC(=O)C(C)CCOC1(C)OCCC1C (configuration not stated)", "TGI": "> 100 µM"}

====

Tested on: HOP-62 NSCLC
Experiment: NCI tumour cell line growth inhibition, 48 h
Catalogue of compounds with associated TGI

{"compound": "O=C(O/N=C1/CCCC/C1=C\\c1ccccc1)c1ccc(Cl)c(Cl)c1", "tested_target": "HOP-62 NSCLC", "TGI": "> 100 µM"}
{"compound": "CCCCNc1nc2nc[nH]c2c(=O)[nH]1", "tested_target": "HOP-62 NSCLC", "TGI": "> 100 µM"}
{"compound": "Cc1cc(NN)nc2n[nH]c(N)c12", "tested_target": "HOP-62 NSCLC", "TGI": "> 100 µM"}
{"compound": "COc1ccc2nc(NNC(=O)c3cnccn3)c3cccn3c2c1", "tested_target": "HOP-62 NSCLC", "TGI": "20 µM"}
{"compound": "CC(C)CCNc1ncnc2[nH]ncc12", "tested_target": "HOP-62 NSCLC", "TGI": "> 100 µM"}
{"compound": "CC(C)OC(=O)C1=C2c3ncccc3C(=O)N2[C@@H](Cl)[C@@H](Cl)[C@@H]1Cl", "tested_target": "HOP-62 NSCLC", "TGI": "> 100 µM"}
{"compound": "Cc1cccc(NC(=O)/C=C/c2ccccc2)c1C", "tested_target": "HOP-62 NSCLC", "TGI": "> 100 µM"}
{"compound": "O=S1CCN(Cc2ccc(-c3ccc4ncnc(Nc5ccc(OCc6cccc(F)c6)c(Cl)c5)c4c3)o2)CC1", "tested_target": "HOP-62 NSCLC", "TGI": "> 25 µM"}
{"compound": "COc1cc(Nc2cnc3cc(N)ccc3n2)cc(OC)c1OC", "tested_target": "HOP-62 NSCLC", "TGI": "> 100 µM"}
{"compound": "O=C(O)CNC(=O)C(CSC(=O)OCC1c2ccccc2-c2ccccc21)NC(=O)CCC(NC(=O)OCC1c2ccccc2-c2ccccc21)C(=O)O (stereo not given)", "tested_target": "HOP-62 NSCLC", "TGI": "28.9 µM"}
{"compound": "O=C(N=Nc1c(O)[nH]c2c(Cl)cc(Cl)cc12)c1ccccc1O", "tested_target": "HOP-62 NSCLC", "TGI": "29.2 µM"}
{"compound": "COCC(=O)Oc1cc(-c2ccc(C)cc2C)c(OC(=O)COC)c(-c2ccc(C)cc2C)c1", "tested_target": "HOP-62 NSCLC", "TGI": "28.1 µM"}
{"compound": "CN(C)CCn1nc2c3c(c(C(=O)NCCCN(C)CCCNC(=O)c4ccc5c6c(nn5CCN(C)C)-c5ccccc5Nc46)ccc31)Nc1ccccc1-2", "tested_target": "HOP-62 NSCLC", "TGI": "0.574 µM"}
{"compound": "CCOc1nc(OCC)nc(-c2cccn2-c2ccccc2)n1", "tested_target": "HOP-62 NSCLC", "TGI": "> 100 µM"}
{"compound": "O=C(OC1CC(n2cc(F)c(=O)[nH]c2=O)OC1CSC(=O)c1ccccc1)c1ccccc1 (stereo not given)", "tested_target": "HOP-62 NSCLC", "TGI": "> 100 µM"}
